assay: activity coefficient (dimensionless); of the first substance listed, at infinite dilution; xn = mol fraction of the nth substance listed; conditions: 338.15 K; 101.33 kPa; Liquid; Chromatography; x1 = 0
Examples of compounds with documented activity coefficient follow.
Just the number, please.

Example cases with answers are listed next.
CCOCC [diethyl ether] + CCCCCCCCCCCC[N+](C)(C)CCOc1ccccc1.O=S(=O)([N-]S(=O)(=O)C(F)(F)F)C(F)(F)F : 1.18
CCCCCCC [heptane] + CCCCCCCCCCCC[N+](C)(C)CCOc1ccccc1.N#C[N-]C#N : 6.08
C1=CCCCC1 [cyclohexene] + CCCCCCCCCCCC[N+](C)(C)CCOc1ccccc1.O=S(=O)([N-]S(=O)(=O)C(F)(F)F)C(F)(F)F : 1.56

# ---- query compound ----
Given the compound Cc1ccccc1C [1,2-dimethylbenzene] + CCCCCCCCCCCC[N+](C)(C)CCOc1ccccc1.N#C[N-]C#N , what is its reported activity coefficient? 1.28

---

assay: activity coefficient (dimensionless); of the first substance listed, at infinite dilution; xn = mol fraction of the nth substance listed; conditions: 358.15 K; 101.33 kPa; Liquid; Chromatography; x1 = 0
Examples of compounds with documented activity coefficient follow.

CCOC(C)=O [ethyl acetate] + CCCCCCCCCCCC[N+](C)(C)CCOc1ccccc1.N#C[N-]C#N : 1.31
CC(C)(C)O [2-methylpropan-2-ol] + CCCCCCCCCCCC[N+](C)(C)CCOc1ccccc1.O=S(=O)([N-]S(=O)(=O)C(F)(F)F)C(F)(F)F : 0.986
CCCCCCCCC [nonane] + CCCCCCCCCCCC[N+](C)(C)CCOc1ccccc1.O=S(=O)([N-]S(=O)(=O)C(F)(F)F)C(F)(F)F : 5.12

Given the compound CCCC=O [butanal] + CCCCCCCCCCCC[N+](C)(C)CCOc1ccccc1.O=S(=O)([N-]S(=O)(=O)C(F)(F)F)C(F)(F)F , what is its reported activity coefficient? 0.844

---

assay: activity coefficient (dimensionless); of the first substance listed, at infinite dilution; xn = mol fraction of the nth substance listed; conditions: 358.15 K; 101.33 kPa; Liquid; Chromatography; x1 = 0
MEASURED PARAMETER: activity coefficient
Just the number, please.

COC(C)=O [methyl ethanoate] + CCCCCCCCCCCC[N+](C)(C)CCOc1ccccc1.N#C[N-]C#N : 1.12
C1CCOC1 [tetrahydrofuran] + CCCCCCCCCCCC[N+](C)(C)CCOc1ccccc1.N#C[N-]C#N : 0.77
CCCOCCC [dipropyl ether] + CCCCCCCCCCCC[N+](C)(C)CCOc1ccccc1.N#C[N-]C#N : 3.61

# ---- query molecule ----
Given the molecule Cc1ccccc1C [1,2-dimethylbenzene] + CCCCCCCCCCCC[N+](C)(C)CCOc1ccccc1.N#C[N-]C#N , what is its reported activity coefficient? 1.36

---

Examples of compounds with documented activity coefficient follow.
experiment: activity coefficient (dimensionless); of the first substance listed, at infinite dilution; xn = mol fraction of the nth substance listed; conditions: 368.15 K; 101.33 kPa; Liquid; Chromatography; x1 = 0

Example cases with answers are listed next.
Cc1ccc(C)cc1 [1,4-dimethylbenzene] + CCCCCCCCCCCC[N+](C)(C)CCOc1ccccc1.N#C[N-]C#N : 1.63
CCCC(=O)OC [methyl butanoate] + CCCCCCCCCCCC[N+](C)(C)CCOc1ccccc1.N#C[N-]C#N : 1.46
CCCCCO [pentan-1-ol] + CCCCCCCCCCCC[N+](C)(C)CCOc1ccccc1.N#C[N-]C#N : 0.53

Given the compound CC(C)CC(C)(C)C [2,2,4-trimethylpentane] + CCCCCCCCCCCC[N+](C)(C)CCOc1ccccc1.O=S(=O)([N-]S(=O)(=O)C(F)(F)F)C(F)(F)F , what is its reported activity coefficient? 3.9

Given the compound CC(C)c1ccccc1 [isopropylbenzene] + CCCCCCCCCCCC[N+](C)(C)CCOc1ccccc1.N#C[N-]C#N , what is its reported activity coefficient? 2.05

Given the compound CCC(C)O (configuration not stated) [butan-2-ol] + CCCCCCCCCCCC[N+](C)(C)CCOc1ccccc1.N#C[N-]C#N , what is its reported activity coefficient? 0.55

Given the compound Cc1ccc(C)cc1 [1,4-dimethylbenzene] + CCCCCCCCCCCC[N+](C)(C)CCOc1ccccc1.O=S(=O)([N-]S(=O)(=O)C(F)(F)F)C(F)(F)F , what is its reported activity coefficient? 1.14
